The reported numbers originate from patent US20110135636A1.

- Assayed Target: T1, recombinant human EGFR extracellular domain with 6xHis (human, UniProt P00533 25-645)
- T1 construct: In-house produced; also called 6xHis EGFR ECD; soluble human EGFR ECD; not shown: 6xHis tag
- Method Notes: SPR competition, competitor 1261
Measure Name: % inhibition (%)
Please give a number only; it is taken to be in %.

Use the examples below as a reference point.
>  <Binder>
antibody 1030 (antibody, human IgG1, kappa, V domains shown, Chimeric IgG1 kappa) VH: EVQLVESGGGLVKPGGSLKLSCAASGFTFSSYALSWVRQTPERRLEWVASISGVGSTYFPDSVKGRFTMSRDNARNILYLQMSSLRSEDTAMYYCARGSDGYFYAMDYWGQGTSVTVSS VL: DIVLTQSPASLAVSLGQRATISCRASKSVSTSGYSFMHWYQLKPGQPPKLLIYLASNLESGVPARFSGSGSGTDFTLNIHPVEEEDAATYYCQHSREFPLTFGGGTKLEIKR

>  <Measure Name>
% inhibition

>  <Number>
8

$$$$
>  <Binder>
antibody 1261 (antibody, human IgG1, kappa, V domains shown, Chimeric IgG1 kappa) VH: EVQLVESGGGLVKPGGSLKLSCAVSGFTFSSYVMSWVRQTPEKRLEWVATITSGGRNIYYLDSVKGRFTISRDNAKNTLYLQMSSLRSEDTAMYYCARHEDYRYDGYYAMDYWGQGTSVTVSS VL: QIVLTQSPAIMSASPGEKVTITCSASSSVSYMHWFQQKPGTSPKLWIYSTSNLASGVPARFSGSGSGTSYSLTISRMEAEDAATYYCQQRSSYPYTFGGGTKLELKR

>  <Measure Name>
% inhibition

>  <Number>
95

$$$$

Could you now look at the following binder, please?
For reference, reported % inhibition for antibody 1208 (antibody, human IgG1, kappa, V domains shown, Chimeric IgG1 kappa; also called clone 1208) VH: EVQLVESGGGLVKPGGSLKLSCAASGFAFSSYDMSWVRQTPEKRLEWVAYIGSGDDNTHYPDSVKGRFTISRHNAKNTLYLQMSSLKSEDTAMYYCARQKYGNYGDTMDYWGQGTSVTVSS VL: DVVMTQTPLSLPVSLGDQASISCRSSQSLVHSNGNTYLHWYLQKPGQSPKLLIYKVSNRFSGVPDRFSGSGSGTDFTLKISRVEAEDLGVYFCSQSTHVPTFGGGTKLEIKR stands at 13
